- Tested on: rabbit skeletal myofibrils (approximately 90% fast fibers)
- Run Description: Activation of fast skeletal myofibrils (PUMA coupled-enzyme ATPase assay, AC1.4)
- Type: biochemical
- Condition Summary: Table 2; concentration at which the compound increased enzymatic activity by 40%; calcium at pCa25
Assay Metric: Mean AC1.4

# annotated cases, reported Mean AC1.4 shown
CC(C)(CNc1nc(-c2ccccc2O)ns1)c1ccc(F)cc1    B (B=1-10 uM)
Fc1cccnc1C1(CNc2nc(-c3ccccc3)ns2)CCC1    B (B=1-10 uM)
C[C@@H](CNc1nc(Cc2cccc(O)c2)ns1)c1ccc(F)cc1    A (A=<1 uM)
CC(C)(CNc1nc(CC(O)CO)ns1)c1ccc(F)cc1 (stereo not drawn)    B (B=1-10 uM)
CC(C)(O)CCc1nsc(NCC(C)(C)c2ccc(F)cc2)n1    B (B=1-10 uM)
CC(C)(CNc1nc(-c2ccc(O)cc2)ns1)c1ccc(F)cc1    A (A=<1 uM)

*Q* Please give measured Mean AC1.4 of the following entry: COC/C=C/c1nsc(NCC(C)(C)c2ccc(F)cc2)n1
*A* B (B=1-10 uM)

* * *

- Tested on: rabbit skeletal myofibrils (approximately 90% fast fibers)
- Run Description: Activation of fast skeletal myofibrils (PUMA coupled-enzyme ATPase assay, AC1.4)
- Format: biochemical
- Condition Summary: Table 2; concentration at which the compound increased enzymatic activity by 40%; calcium at pCa25
Assay Metric: Mean AC1.4

# annotated cases, reported Mean AC1.4 shown
Cc1ccc(Cc2nsc(NCCc3ccc(Cl)c(Cl)c3)n2)cc1    B (B=1-10 uM)
Fc1ccc(Cc2nsc(Nc3ccc(Cl)cc3)n2)cc1    D (D=>20 uM)
CC(C)(CNc1nc(-c2ccc(F)c(C#N)c2)ns1)c1ccc(F)cc1    B (B=1-10 uM)
Clc1ccc(CNc2nc(Cc3ccc(Cl)cc3)ns2)cc1    D (D=>20 uM)
COc1cccc(Cc2nsc(NC[C@H](C)c3ccc(F)cc3)n2)c1    B (B=1-10 uM)

Attention now shifts to the item below.
*Q* Please give measured Mean AC1.4 of the following entry: Cc1ccc(Cc2nsc(NCCc3c(Cl)cccc3Cl)n2)cc1
*A* D (D=>20 uM)

The origin of these recorded values is patent US9278962B2.
